I'd be grateful if you could share measured % Inhibition 5 DAP SHCA for these entries.
System: Shattercane (SHCA)
Type: in vivo
measurement_conditions: Antidote 4.48 + Biocide No. 1 8.96 Kg/Ha PPI, Herb. No. 8 0.07; 5 DAP, before herbicide application
Answers are plain numbers, in %.

# count of solved cases: 2
compound: Clc1cc(Cl)nc(-c2ccccc2)n1
experimental_result: 0

compound: COC(=O)COC(c1ccccc1)c1ccccc1
experimental_result: 0

Batch lookup, % Inhibition 5 DAP SHCA per entry.
1. C=CCN(CC=C)C(=O)C(Cl)Cl
2. CC1CN(C(=O)C(Cl)Cl)C(C)(C)O1 (stereo not drawn)
3. CC1(C)OC(c2ccco2)CN1C(=O)C(Cl)Cl (stereo not drawn)
4. N#CCOc1ccc(Cl)c2cccnc12
5. C=CCC(C)(C#N)Sc1ccc(C)cc1 (stereo not drawn)

[0, 0, 0, 20, 30]

// batch mode: one % Inhibition 5 DAP SHCA value per listed entry
1. CCOC(=O)c1cnoc1-c1ccc(Cl)cc1Cl
2. C=CCSC(=S)N(C)c1ccccc1

50
40

====

Tested on: Corn
measurement_conditions: […]; 13 days after planting, 8 days after herbicide
measured_endpoint: % Inhibition Corn (%)
One number for each entry, in %.

Check out these entries, answers already filled in.
compound: C=CCSC(=S)N(C)c1ccccc1
target_or_test_system: Corn
scale_unit: %
experimental_result: 35
//
compound: CC1CN(C(=O)C(Cl)Cl)C(C)(C)O1 (centres unmarked)
target_or_test_system: Corn
scale_unit: %
experimental_result: 20
//
compound: C=CCC(C)(C#N)Sc1ccc(C)cc1 (centres unmarked)
target_or_test_system: Corn
scale_unit: %
experimental_result: 25
//
compound: CC(N=C1SCC(=C(Cl)Cl)S1)c1ccccc1 (centres unmarked)
target_or_test_system: Corn
scale_unit: %
experimental_result: 25

Now for another entry.
Give reported % Inhibition Corn value for `COC(=O)COC(c1ccccc1)c1ccccc1`
0

====

Tested on: Corn
assay_info: Greenhouse test Procedure VII: biocide and antidote in furrow, herbicide POE (Examples 39-42, 48-50, 56-58; Tables 38-41, 47-49, 55-57)
Format: in vivo
measurement_conditions: C (COUNTER) + antidote in furrow, C:A Ratio 20; ACCENT 0.56 Kg/Ha POE
measured_endpoint: % Inhibition Corn (%)
Answers are plain numbers, in %.

Worked cases, answers included:
molecule: CC1(C)OC(c2ccco2)CN1C(=O)C(Cl)Cl (stereo not shown) [compound 1]
scale_unit: %
experimental_result: 10

molecule: O=C(O)COC(c1ccccc1)c1ccccc1 [compound 78]
scale_unit: %
experimental_result: 25

Go through the items and report each one's % Inhibition Corn.
1. O=C(O)COC(c1ccccc1)c1ccccc1 [compound 79]
2. CC1CN(C(=O)C(Cl)Cl)C(C)(C)O1 (stereo not shown) [compound 8]

1. 15
2. 10

====

Tested on: Corn
measurement_conditions: […]; 13 days after planting, 8 days after herbicide
Kindly state % Inhibition Corn for each of the entries shown.
Numbers only, in %.

compound: Clc1cc(Cl)nc(-c2ccccc2)n1
% Inhibition Corn / %: 30
--
compound: N#CCOc1ccc(Cl)c2cccnc12
% Inhibition Corn / %: 10

Give one value of % Inhibition Corn per listed compound.
1. COc1ccc(OC)c(C(=O)CC2OC(=O)c3ccccc32)c1 (stereo not drawn)
2. C=CCN(CC=C)C(=O)C(Cl)Cl
3. CC1(C)OC(c2ccco2)CN1C(=O)C(Cl)Cl (stereo not drawn)
4. CCOC(=O)c1cnoc1-c1ccc(Cl)cc1Cl

[15, 15, 5, 25]
